Tested on: spontaneously hypertensive male rats, strain MHS
Assay: Anti-hypertensive activity in the spontaneously hypertensive rat (MHS): blood pressure and heart rate at the tail
Assay type: in vivo
Conditions: 5 mg/kg os, first day, 1 hr after dose
Each entry falls into one class according to its Change in BP, 1 hr after dose, first day; the ranges are group A = under -30 mm Hg, group B = from -30 mm Hg up to -20 mm Hg, group C = -20 mm Hg and over

The following compounds have reported results that may help.
Compound: CN1C[C@H](CC(C#N)C(=O)N2CCCC2)C[C@@H]2c3cccc4[nH]cc(c34)C[C@H]21 (some centres unmarked) [Example 1133]
Tested on: spontaneously hypertensive male rats, strain MHS
Class label: group B

Compound: CCCN1C[C@H](CC(C#N)C(N)=O)C[C@@H]2c3cccc4[nH]cc(c34)C[C@H]21 (some centres unmarked) [355/1282]
Tested on: spontaneously hypertensive male rats, strain MHS
Class label: group A

Hello team, could you let me know which band the following compound falls into: N#CC(CC1CC2c3cccc4[nH]cc(c34)CC2N(CC2CC2)C1)C(N)=O (centres unmarked) [355/1323]
group C

Consider C=CCN1C[C@H](CC(C#N)C(N)=O)C[C@@H]2c3cccc4[nH]cc(c34)C[C@H]21 (some centres unmarked) [355/1266] . To which Change in BP, 1 hr after dose, first day class does it belong?
group C

Kindly identify the class of CN1C[C@H](CC(C#N)C(N)=O)C[C@@H]2c3cccc4[nH]c(Br)c(c34)C[C@H]21 (some centres unmarked) [Example 1139] .
group B

Please indicate the class for CCCN1C[C@H](CC(C#N)C(=O)NCC)C[C@@H]2c3cccc4[nH]cc(c34)C[C@H]21 (some centres unmarked) [355/1281] based on its Change in BP, 1 hr after dose, first day.
group B

Dear colleague, I would appreciate it if you could identify the bin for CCNC(=O)C(C#N)C[C@@H]1C[C@@H]2c3cccc4[nH]cc(c34)C[C@H]2N(C)C1 (some centres unmarked) [Example 1138] and reply at your convenience.
group B

Sort into band: CN1C[C@H](CC(C#N)C(N)=O)C[C@@H]2c3cccc4[nH]cc(c34)C[C@H]21 (some centres unmarked) [355/1057]
group A

Which category does the recorded Change in BP, 1 hr after dose, first day put CN1C[C@H](CC(C#N)C(=O)NCc2ccccc2)C[C@@H]2c3cccc4[nH]cc(c34)C[C@H]21 (some centres unmarked) [Example 1131] in?
group A

// bin(item) where item = NNc1nncc2ccccc12 [Hydralazine, hydralazine, reference compound]
group A

----------
System: spontaneously hypertensive male rats, strain MHS
Assay: Anti-hypertensive activity in the spontaneously hypertensive rat (MHS): blood pressure and heart rate at the tail
Format: in vivo
Details: 2 mg/kg os, fourth day, 1 hr after dose
Property: Change in BP, 1 hr after dose, fourth day; scope: individual compounds
# unit: mm Hg | format: bare number

Examples from the recorded data:
Compound: C=CCN1C[C@H](CC(C#N)C(N)=O)C[C@@H]2c3cccc4[nH]cc(c34)C[C@H]21 (some centres unmarked) [355/1266]
Assay result: -25
//
Compound: CN1C[C@H](CC(C#N)C(N)=O)C[C@@H]2c3cccc4[nH]c(Br)c(c34)C[C@H]21 (some centres unmarked) [Example 1139]
Assay result: -18

Which Change in BP, 1 hr after dose, fourth day reading was recorded for the compound CN1C[C@H](CC(C#N)C(=O)N2CCCC2)C[C@@H]2c3cccc4[nH]cc(c34)C[C@H]21 (some centres unmarked) [Example 1133] ?
-21

What measured Change in BP, 1 hr after dose, fourth day goes with CN1C[C@H](CC(C#N)C(=O)NCc2ccccc2)C[C@@H]2c3cccc4[nH]cc(c34)C[C@H]21 (some centres unmarked) [Example 1131] ?
-22

I would be grateful if you could share the reported Change in BP, 1 hr after dose, fourth day for CCNC(=O)C(C#N)C[C@@H]1C[C@@H]2c3cccc4[nH]cc(c34)C[C@H]2N(C)C1 (some centres unmarked) [Example 1138] .
-30

Need Change in BP, 1 hr after dose, fourth day of CCCN1C[C@H](CC(C#N)C(N)=O)C[C@@H]2c3cccc4[nH]cc(c34)C[C@H]21 (some centres unmarked) [355/1282] , thanks.
-15

// Change in BP, 1 hr after dose, fourth day lookup, key: CN1C[C@H](CC(C#N)C(N)=O)C[C@@H]2c3cccc4[nH]cc(c34)C[C@H]21 (some centres unmarked) [355/1057]
-26

----------
Experiment: Acute toxicity (LD50) in mice
Type: in vivo, mouse
Details: mouse, in vivo; male mice; oral; observed for seven days
// reported LD50 at 168 h per item
Enter your answer as a number in mg/kg; do not include the unit.

Compound: NNc1nncc2ccccc12 [Hydralazine, hydralazine, reference compound]
Measurement label: LD50 at 168 h
U: mg/kg
Assay result: 122

Item CN1C[C@H](CC(C#N)C(=O)N2CCCC2)C[C@@H]2c3cccc4[nH]cc(c34)C[C@H]21 (stereo partly drawn) [Example 1133] has what recorded LD50 at 168 h?
500

Find the recorded LD50 at 168 h belonging to CCNC(=O)C(C#N)C[C@@H]1C[C@@H]2c3cccc4[nH]cc(c34)C[C@H]2N(C)C1 (stereo partly drawn) [Example 1138] and report it.
500

Request the reported LD50 at 168 h associated with CN1C[C@H](CC(C#N)C(N)=O)C[C@@H]2c3cccc4[nH]c(Br)c(c34)C[C@H]21 (stereo partly drawn) [Example 1139]
125

----------
Test system: spontaneously hypertensive male rats, strain MHS
Assay: Anti-hypertensive activity in the spontaneously hypertensive rat (MHS): blood pressure and heart rate at the tail
Assay type: in vivo
Details: 2 mg/kg os, fourth day, 5 hr after dose
Method: 1. Spontaneously Hypertensive Rat (MHS) Four spontaneously hypertensive male rats, strain MHS, weight 250 to 300 g for each group were used. The animals were treated for four consecutive days. […]
Measurement label: Change in HR, 5 hr after dose, fourth day

Completed entries (count: 3):
Molecule: CN1C[C@H](CC(C#N)C(N)=O)C[C@@H]2c3cccc4[nH]cc(c34)C[C@H]21 (stereo partly drawn) [355/1057]
Assay result: -5 b/min

Molecule: CN1C[C@H](CC(C#N)C(=O)N2CCCC2)C[C@@H]2c3cccc4[nH]cc(c34)C[C@H]21 (stereo partly drawn) [Example 1133]
Assay result: -3 b/min

Molecule: CN1C[C@H](CC(C#N)C(N)=O)C[C@@H]2c3cccc4[nH]c(Br)c(c34)C[C@H]21 (stereo partly drawn) [Example 1139]
Assay result: +35 b/min

Entry CN1C[C@H](CC(C#N)C(=O)NCc2ccccc2)C[C@@H]2c3cccc4[nH]cc(c34)C[C@H]21 (stereo partly drawn) [Example 1131] has what Change in HR, 5 hr after dose, fourth day?
+5 b/min

Would you kindly share the measured Change in HR, 5 hr after dose, fourth day for NNc1nncc2ccccc12 [Hydralazine, hydralazine, reference compound] ?
+23 b/min

Quick one: Change in HR, 5 hr after dose, fourth day for CCNC(=O)C(C#N)C[C@@H]1C[C@@H]2c3cccc4[nH]cc(c34)C[C@H]2N(C)C1 (stereo partly drawn) [Example 1138] ?
-12 b/min

----------
# key: entry, value: Change in heart rate after treatment, 360'
Tested on: normotensive rats
Assay: Blood pressure and heart rate in the conscious normotensive rat (NR)
Type: in vivo
Conditions: 5 mg/kg os, 360'

Compound: CN1C[C@H](CC(C#N)C(=O)NCc2ccccc2)C[C@@H]2c3cccc4[nH]cc(c34)C[C@H]21 (stereo partly drawn)
Tested on: normotensive rats
Assay result: +10 b/min
--
Compound: NNc1nncc2ccccc12 [Hydralazine, hydralazine, reference compound]
Tested on: normotensive rats
Assay result: +12 b/min

Now consider a different compound.
Param item = CN1C[C@H](CC(C#N)C(N)=O)C[C@@H]2c3cccc4[nH]c(Br)c(c34)C[C@H]21 (stereo partly drawn) ; retrieve measured Change in heart rate after treatment, 360'.
+15 b/min

----------
Test system: spontaneously hypertensive male rats, strain MHS
Assay: Anti-hypertensive activity in the spontaneously hypertensive rat (MHS): blood pressure and heart rate at the tail
Assay type: in vivo
Settings: 5 mg/kg os, first day, 1 hr after dose
Measurement label: Change in BP, 1 hr after dose, first day (mm Hg)
Give the value in mm Hg but do not write mm Hg after it.

Molecule: CC(C)N1C[C@H](CC(C#N)C(N)=O)C[C@@H]2c3cccc4[nH]cc(c34)C[C@H]21 (stereo partly shown) [Example 37]
U: mm Hg
Change in BP, 1 hr after dose, first day: -30
--
Molecule: C=CCN1C[C@H](CC(C#N)C(=O)NCC)C[C@@H]2c3cccc4[nH]cc(c34)C[C@H]21 (stereo partly shown) [355/1320]
U: mm Hg
Change in BP, 1 hr after dose, first day: -30
--
Molecule: CCNC(=O)C(C#N)C[C@@H]1C[C@@H]2c3cccc4[nH]cc(c34)C[C@H]2N(C(C)C)C1 (stereo partly shown) [Example 38]
U: mm Hg
Change in BP, 1 hr after dose, first day: -20

Query molecule follows.
Tell me the measured Change in BP, 1 hr after dose, first day of CCNC(=O)C(C#N)CC1CC2c3cccc4[nH]cc(c34)CC2N(CC2CC2)C1 (stereo not shown) [355/1324] , please.
-20

# credit: patent US4321381A
